system: HOP-62 NSCLC; assay: NCI tumour cell line growth inhibition, 48 h

Molecule: Oc1ccc(Cl)cc1N=Nc1c(O)ccc2ccccc12
TGI: > 100 µM

Molecule: C=C1CC2(CC(c3ccccc3C)OC(c3ccccc3C)C2)OC1=O (centres undefined)
TGI: 26.8 µM

Molecule: Cc1ccc(O)c(C(=O)/C=C/c2ccccc2)c1
TGI: > 100 µM

Molecule: CCN1CC2(CO)CCC(OC)C34C5CC6C(OC)CC(O)(C5C6OC)C(O)(C(OC)C23)C14 (centres undefined)
TGI: > 375 µM

Molecule: c1ccc(C(OCCN2CC3CCC(C2)N3)c2ccccc2)cc1
TGI: > 100 µM

Molecule: c1ccc(C2SCc3nc4ccccc4n32)cc1 (centres undefined)
TGI: > 100 µM

Molecule: CCc1cc2c(cc1O)CC[C@@H]1[C@@H]2CC[C@]2(C)[C@@H](O)CC[C@@H]12
TGI: 19.8 µM

Molecule: CC(C)c1cccc(C(C)C)c1NC(=O)/C(Cc1nc2ccc(Cl)cc2[nH]c1=O)=N\NC(=O)C[N+](C)(C)C
TGI: > 100 µM

Molecule: Clc1cc2ns[s+]c2cc1Cl
TGI: > 81.7 µM
